Experiment: Ratio of drug level in brain to plasma in Wistar rat at 5 mg/kg, po after 1 hr
Format: ADME, organism-based
Set-up: dose 5 mg/kg, route oral
Details: brain and plasma, read-out: BPR
Observed property: Kp at 1 h

*Q* I am curious: what Kp at 1 h value has been reported for CC(C)(C)c1ccc(SCCc2c[nH]cn2)cc1 ?
*A* 6

====

Observed property: pIC50
Scale note: pIC50 = -log10(concentration in M).

*Q* Record CC(C)(C)c1ccc(SCCc2c[nH]cn2)cc1 : what is its pIC50 with Cytochrome P450 2D6 (Homo sapiens, UniProt P10635)?
*A* 6.17

====

Target: Histamine H3 receptor (Homo sapiens)
Test: Agonist activity at human recombinant histamine H3 receptor expressed in CHO cells assessed as [35S]GTPgammaS binding at 10 nM after 1 hr by liquid scintillation counting relative to (R)-alpha-methylhistamine
Assay type: functional, cell-based
Observed property: Activity

*Q* Fill in the blank: the reported Activity of Cc1ccc(NCCc2c[nH]cn2)cc1C is ____.
*A* 59%

*Q* Fill in: Activity of CC(C)(C)c1ccc(NCCc2c[nH]cn2)cc1 is ___
*A* 70%

*Q* What does the data say about its Activity? Entry: NCCc1c[nH]cn1
*A* 110%

*Q* I am curious: what Activity value has been reported for FC(F)(F)c1ccc(NCCc2c[nH]cn2)cc1 ?
*A* 56%

*Q* Could you share which Activity value was measured for CC(C)(C)c1ccc(SCCc2c[nH]cn2)cc1 ?
*A* 77%

*Q* Return reported Activity; argument: CC(C)(C)c1cccc(NCCc2c[nH]cn2)c1
*A* 48%

*Q* Entry COc1ccc(NCCc2c[nH]cn2)cc1 has what Activity?
*A* 56%

*Q* Give its Activity value. Item: c1nc(CCNC2CCCCC2)c[nH]1
*A* 31%

*Q* Report Activity for Cc1ccc(NCCc2c[nH]cn2)cc1 please.
*A* 49%

*Q* Recorded Activity for N=C(N)SCCc1c[nH]cn1 , please?
*A* 91%

*Q* Could you tell me which Activity is on file for c1ccc(NCCc2c[nH]cn2)cc1 ?
*A* 42%

====

Assay: Oral bioavailability in Wistar rat at 5 mg/kg after 24 hrs by LC-MS/MS analysis
Assay type: ADME, organism-based
Details: in vivo
Observed property: bioavailability

*Q* Any idea what bioavailability was measured for CC(C)(C)c1ccc(SCCc2c[nH]cn2)cc1 ?
*A* 53.5%

====

Molecular target: Histamine H3 receptor (Homo sapiens, UniProt Q9Y5N1)
Sequence (Q9Y5N1 whole entry): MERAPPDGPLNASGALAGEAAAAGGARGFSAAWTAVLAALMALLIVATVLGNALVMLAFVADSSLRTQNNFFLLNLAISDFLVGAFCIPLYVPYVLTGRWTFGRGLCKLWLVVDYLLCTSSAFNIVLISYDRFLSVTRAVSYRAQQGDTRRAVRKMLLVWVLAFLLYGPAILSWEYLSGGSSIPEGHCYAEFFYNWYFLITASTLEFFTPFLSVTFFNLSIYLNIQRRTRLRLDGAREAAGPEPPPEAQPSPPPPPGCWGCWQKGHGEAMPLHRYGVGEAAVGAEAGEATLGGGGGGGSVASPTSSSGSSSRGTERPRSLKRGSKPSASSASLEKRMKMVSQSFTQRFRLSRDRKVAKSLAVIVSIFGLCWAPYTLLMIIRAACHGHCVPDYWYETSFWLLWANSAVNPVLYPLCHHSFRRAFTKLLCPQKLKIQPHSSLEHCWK
Experiment: Agonist activity at human recombinant histamine H3 receptor expressed in CHO cells assessed as [35S]GTPgammaS binding after 1 hr by liquid scintillation counting
Assay type: functional, cell-based
Conditions: read-out: EC50
Observed property: pEC50
The read-out pEC50 is expressed as -log10 of concentration in moles per litre.

*Q* # pEC50 lookup, item FC(F)(F)c1ccc(NCCc2c[nH]cn2)cc1
*A* 7.72

*Q* Look at this molecule and give its reported pEC50. CC(C)(C)c1cccc(NCCc2c[nH]cn2)c1
*A* 8.34

*Q* Endpoint output: pEC50 of CC(C)(C)c1ccc(NCCc2cnc[nH]2)cc1 . Value?
*A* 8.80

*Q* Return reported pEC50; argument: CC(C)(C)c1ccc(SCCc2c[nH]cn2)cc1
*A* 9.12

*Q* Entry c1nc(CCNC2CCCCC2)c[nH]1 has what pEC50?
*A* 5.47

*Q* Record request: pEC50 value, item Cc1ccc(NCCc2cnc[nH]2)cc1C
*A* 7.60

*Q* Returns the measured pEC50 for the input molecule. Input: COc1ccc(NCCc2c[nH]cn2)cc1
*A* 7.19

*Q* Data request, read-out pEC50, for N=C(N)SCCc1cnc[nH]1 [IMETIT]
*A* 8.62

*Q* Which measured pEC50 value corresponds to Cc1ccc(NCCc2cnc[nH]2)cc1 ?
*A* 7.06

Taken from ChEMBL document CHEMBL1158577.
